FYI, the data here is from paper PMC6751662.

Listing: IP accumulation, x-fold of basal (mean), Y5R of selected substances
- ASSAY_SYSTEM: Y5R (Homo sapiens, UniProt Q15761)
- Construct: expressed in transfected cells; host or cells: HEK293, transient
- Sequence (Q15761 whole entry): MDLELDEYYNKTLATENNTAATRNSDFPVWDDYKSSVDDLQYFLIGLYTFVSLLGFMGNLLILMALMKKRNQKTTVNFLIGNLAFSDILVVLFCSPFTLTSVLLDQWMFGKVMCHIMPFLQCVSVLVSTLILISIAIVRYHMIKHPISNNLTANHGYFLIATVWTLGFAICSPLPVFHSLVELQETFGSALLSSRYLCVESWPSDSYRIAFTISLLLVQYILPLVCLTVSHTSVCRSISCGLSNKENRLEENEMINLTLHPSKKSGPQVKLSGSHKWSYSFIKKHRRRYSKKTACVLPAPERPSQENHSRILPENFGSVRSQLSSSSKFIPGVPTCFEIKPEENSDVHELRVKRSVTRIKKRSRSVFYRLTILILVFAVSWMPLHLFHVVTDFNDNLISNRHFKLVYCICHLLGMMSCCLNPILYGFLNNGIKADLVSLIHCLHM
- ASSAY_METHOD_TEXT: IP accumulation assay, chimeric GαΔ6qi4myr, Y5R
- Assay type: cell-based
- TEST_CONDITIONS: 0.1 µM peptide; chimeric GαΔ6qi4myr co-transfected; transiently transfected HEK293 cells; mean of at least three independent experiments
TEST_READOUT: IP accumulation, x-fold of basal (mean), Y5R

| SUBSTANCE | MEASURED_VALUE |
| --- | --- |
| APLEPVYPGDNATPEQMAQYAADLRRYINMLTRPRY-NH2 [PP, human pancreatic polypeptide, reference compound] | 16.39 x-fold of basal |
| APKPKFIRF-NH2 [FLP-5-1, C. elegans FMRFamide-like peptide, C-terminally amidated, synthesized by SPPS] | 0.80 x-fold of basal |
| NPENDTPFGTMRF-NH2 [FLP-3-4, C. elegans FMRFamide-like peptide, C-terminally amidated, synthesized by SPPS] | 0.67 x-fold of basal |
| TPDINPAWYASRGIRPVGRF-NH2 [PrRP20, human prolactin-releasing peptide, 20 residues, reference compound] | 1.01 x-fold of basal |
| ASPSFIRF-NH2 [FLP-4-2, C. elegans FMRFamide-like peptide, C-terminally amidated, synthesized by SPPS] | 1.14 x-fold of basal |
| TSGPLGNLAEELNGYSRKKGGFSFRF-NH2 [QRFP26, human pyroglutamylated RFamide peptide, 26 residues, reference compound] | 0.87 x-fold of basal |
| AGSDPNFLRF-NH2 [FLP-1-2, C. elegans FMRFamide-like peptide, C-terminally amidated, synthesized by SPPS] | 1.33 x-fold of basal |
